This listing pairs compounds with measured AC50.
- Study System: Scavenger receptor class B member 1 (Mus musculus) (UniProt Q61009)
- Sequence (Q61009 whole entry, looked up): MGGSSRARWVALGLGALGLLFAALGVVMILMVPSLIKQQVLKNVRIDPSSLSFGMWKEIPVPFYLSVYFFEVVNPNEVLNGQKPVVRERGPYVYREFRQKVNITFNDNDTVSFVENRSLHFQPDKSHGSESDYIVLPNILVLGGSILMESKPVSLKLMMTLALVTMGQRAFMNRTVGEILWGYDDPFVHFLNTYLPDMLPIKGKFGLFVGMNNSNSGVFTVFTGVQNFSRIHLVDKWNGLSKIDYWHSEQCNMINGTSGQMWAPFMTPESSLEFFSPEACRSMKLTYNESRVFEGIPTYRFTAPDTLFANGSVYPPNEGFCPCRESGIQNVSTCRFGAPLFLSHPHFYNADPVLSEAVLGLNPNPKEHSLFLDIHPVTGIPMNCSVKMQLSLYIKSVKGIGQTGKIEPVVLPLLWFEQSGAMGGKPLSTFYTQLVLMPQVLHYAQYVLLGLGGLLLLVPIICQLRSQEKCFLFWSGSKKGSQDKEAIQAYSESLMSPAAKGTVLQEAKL
- Assay: SR-BI-mediated DiI-HDL uptake inhibitors, dose response, ldlA[mSR-BI] CHO cells, powder samples, set 2 (AID 588392)
- Measurement Setup: DiI-HDL uptake fluorescence, 3 h

CCCCCCC1CCC/C1=N\NC(N)=S (stereo not given)	7.1 nM

Incoming: Could you please provide reported AC50 for COc1ccc(-c2nnn(CC(=O)N(C3CCCCC3)C(C)C(=O)NC3CCCC3)n2)cc1OC (stereo not given) ? Thanks!
Outgoing: 72.5 nM

Incoming: Could you please provide reported AC50 for CC(C(=O)NC1CCCC1)N(C(=O)Cn1nnc(-c2ccc(Cl)cc2)n1)C1CCCCC1 (stereo not given) ? Thanks!
Outgoing: 275 nM

Incoming: Could you please provide reported AC50 for O=C(Nc1nc(-c2ccc3c(c2)CCN3C(=O)C2CC2)cs1)c1ccco1 ? Thanks!
Outgoing: 186 nM

Incoming: Could you please provide reported AC50 for CCC(=O)N1CCc2cc(-c3csc(NC(=O)c4ccc(F)c(OC)c4)n3)ccc21 ? Thanks!
Outgoing: 38 nM

Incoming: Could you please provide reported AC50 for COc1cccc(-c2nnn(CC(=O)N(C3CCCCC3)C(C)C(=O)NC3CCCC3)n2)c1 (stereo not given) ? Thanks!
Outgoing: 180 nM

Incoming: Could you please provide reported AC50 for CC(C(=O)NC1CCCC1)N(C(=O)Cn1nnc(-c2ccc(F)cc2)n1)C1CCCCC1 (stereo not given) ? Thanks!
Outgoing: 125 nM

Incoming: Could you please provide reported AC50 for CCC(=O)N1CCc2cc(-c3csc(NC(=O)c4cc(OC)cc(OC)c4)n3)ccc21 ? Thanks!
Outgoing: 4.33 nM

Incoming: Could you please provide reported AC50 for Cc1ccc(-c2nnn(CC(=O)N(C3CCCCC3)C(C)C(=O)NC3CCCC3)n2)cc1 (stereo not given) ? Thanks!
Outgoing: 493 nM

Incoming: Could you please provide reported AC50 for O=C(CN(C(=O)Cn1nnc(-c2ccc3c(c2)OCO3)n1)C1CCCCC1)NC1CCCC1 ? Thanks!
Outgoing: 12.6 nM

---

- Study System: Scavenger receptor class B member 1 (Mus musculus) (UniProt Q61009)
- Assay: SR-BI-mediated DiI-HDL uptake inhibitors, dose response, ldlA[mSR-BI] CHO cells, powder samples, set 2 (AID 588392)
- Measurement Setup: DiI-HDL uptake fluorescence, 3 h
Readout Kind: AC50

CCC(=O)N1CCc2cc(-c3cnc(NC(C)=O)[nH]3)ccc21	1700 nM
CC(C)C(=O)N1CCc2cc(-c3csc(NC(=O)c4ccco4)n3)ccc21	238 nM

Incoming: Could you please provide reported AC50 for COc1ccc(-c2nnn(CC(=O)N(CC(=O)NC3CCCC3)C3CCCCC3)n2)cc1OC ? Thanks!
Outgoing: 8.98 nM

Incoming: Could you please provide reported AC50 for CCC(=O)N1CCc2cc(-c3csc(NC(=O)c4cccc(OC)n4)n3)ccc21 ? Thanks!
Outgoing: 528 nM

Incoming: Could you please provide reported AC50 for CC(C(=O)NC1CCCC1)N(C(=O)Cn1nnc(-c2ccc3c(c2)OCO3)n1)C1CCCCC1 (stereo not given) ? Thanks!
Outgoing: 24.3 nM

Incoming: Could you please provide reported AC50 for CCC(=O)N1CCc2cc(-c3coc(N)n3)ccc21 ? Thanks!
Outgoing: 20000 nM

Incoming: Could you please provide reported AC50 for CCC(=O)N1CCc2cc(-c3cnc(NC(=O)c4ccco4)[nH]3)ccc21 ? Thanks!
Outgoing: 10100 nM

Incoming: Could you please provide reported AC50 for CCC(=O)N1CCc2cc(-c3csc(NC(=O)c4cccc(OC)c4)n3)ccc21 ? Thanks!
Outgoing: 39.9 nM

Incoming: Could you please provide reported AC50 for CCC(=O)N1CCc2cc(-c3csc(NC(=O)c4ccco4)n3)ccc21 ? Thanks!
Outgoing: 53.7 nM

Incoming: Could you please provide reported AC50 for CC(C(=O)NC1CCCC1)N(C(=O)Cn1nnc(-c2cccc(F)c2)n1)C1CCCCC1 (stereo not given) ? Thanks!
Outgoing: 379 nM

---

- Study System: Scavenger receptor class B member 1 (Mus musculus)
- Assay: SR-BI-mediated DiI-HDL uptake inhibitors, dose response, ldlA[mSR-BI] CHO cells, powder samples, set 2 (AID 588392)
- Measurement Setup: DiI-HDL uptake fluorescence, 3 h
This listing pairs compounds with measured AC50.

# annotated cases, reported AC50 shown
COC(=O)N1CCc2cc(-c3csc(NC(=O)c4ccco4)n3)ccc21	6840 nM
COc1ccc(-c2cc(CC(=O)N(C3CCCCC3)C(C)C(=O)NC3CCCC3)no2)cc1OC (stereo not drawn)	15.4 nM
CC(C(=O)NC1CCCC1)N(C(=O)Cn1nnc(-c2ccccc2Cl)n1)C1CCCCC1 (stereo not drawn)	3810 nM
CCC(=O)N1CCc2cc(-c3csc(NC(=O)c4cccc(OC(F)(F)F)c4)n3)ccc21	40.8 nM
CC(C(=O)NC1CCCC1)N(C(=O)Cn1nnc(-c2ccccc2F)n1)C1CCCCC1 (stereo not drawn)	617 nM

Incoming: Could you please provide reported AC50 for O=C(Nc1nc(-c2ccc3c(c2)CCN3)cs1)c1ccco1 ? Thanks!
Outgoing: 44.7 nM

Incoming: Could you please provide reported AC50 for CCC(=O)N1CCc2cc(-c3coc(NC(=O)c4ccco4)n3)ccc21 ? Thanks!
Outgoing: 18900 nM

Incoming: Could you please provide reported AC50 for CS(=O)(=O)N1CCc2cc(-c3csc(NC(=O)c4ccco4)n3)ccc21 ? Thanks!
Outgoing: 386 nM
